# Test system: NCI-H2347
# experimental-details: relative viability (nuclei count vs DMSO), 5 days (fraction); higher = more cells survive
# experimental-setup: first compound 0.005 µM
A collection of molecules and their measured relative viability

molecule	relative viability
Nc1ccn([C@@H]2O[C@H](CO)[C@@H](O)[C@@H]2O)c(=O)n1 [Cytarabine] + CS(=O)(=O)CCNCc1ccc(-c2ccc3ncnc(Nc4ccc(OCc5cccc(F)c5)c(Cl)c4)c3c2)o1 [Lapatinib] (partner 2 µM)	1.01
COc1cc2nccc(Oc3ccc(NC(=O)Nc4cc(C)on4)c(Cl)c3)c2cc1OC [Tivozanib] + CC(=O)c1c(C)c2cnc(Nc3ccc(N4CCNCC4)cn3)nc2n(C2CCCC2)c1=O [Palbociclib] (partner 0.5 µM)	0.48
COc1cc2nccc(Oc3ccc(NC(=O)Nc4cc(C)on4)c(Cl)c3)c2cc1OC [Tivozanib] + O=C(CCCCCCC(=O)Nc1ccccc1)NO [Vorinostat] (partner 1 µM)	0.612
Nc1ccn([C@@H]2O[C@H](CO)[C@@H](O)[C@@H]2O)c(=O)n1 [Cytarabine] + N=C(N)NC(=N)NCCc1ccccc1 [Phenformin] (partner 250 µM)	0.381

Value source: the supplement of paper PMC10307832
